Where do the numbers come from? From PubChem BioAssay AID2330.

The compounds listed here are annotated with their inhibition.
Assay: NOMO-1 AML cell viability reduction, primary screen, STK33 inhibitor project, CellTiter-Glo luminescence (AID 2330)
Conditions: NOMO-1 AML viability, 72 h, active compounds read high, concentration not given here
Hit rate of the full screen: of about 37,000 compounds, about 2,800 (7.6%) were called active. Roughly 1% stayed inconclusive and do not appear here. The entries come from a sample that favours actives as a whole.
// units = %; emit number, no label

Below are worked cases with known answers.
C[C@@H]1CN([C@@H](C)CO)C(=O)Cc2cc(NC(=O)Nc3cccc4ccccc34)ccc2O[C@@H]1CN(C)CC1CCCCC1 117
COc1ccc(N(CC(=O)Nc2ccccc2F)S(C)(=O)=O)cc1 40.4
Cc1ccc([N+](=O)[O-])cc1NC(=O)CSC1=NCCS1 21.4
C[C@H]1CN([C@@H](C)CO)C(=O)Cc2cc(NC(=O)Nc3cccc4ccccc34)ccc2O[C@H]1CN(C)CC1CC1 26.7
CCCc1nc2c(C)cc(-c3nc4ccccc4n3C)cc2n1Cc1ccc(-c2ccccc2C(=O)O)cc1 0.908
C[C@H]1CN([C@@H](C)CO)C(=O)c2cc(NC(=O)Nc3ccc4c(c3)OCO4)ccc2O[C@@H]1CN(C)CC1CCCCC1 31.9
C[C@@H]1CN([C@@H](C)CO)C(=O)c2cc(NC(=O)Cc3ccccc3)ccc2O[C@@H]1CN(C)CC1CCCCC1 17.8

Next:
Query: Request the reported inhibition associated with C[C@H]1CN([C@@H](C)CO)C(=O)Cc2cc(NC(=O)Nc3cccc4ccccc34)ccc2O[C@@H]1CN(C)S(C)(=O)=O
Response: 0.688
